# Assay Text: MTS assay, metabolic inhibition
# Assay type: cell-based, mouse
# Settings: Table 6; NIH 3T3 mouse fibroblast cells
Square brackets hold non-standard residues; d marks the D form. Peptide text beside a SMILES is read from it. Nrpe = C[C@@H](NCC(=O)O)c1ccccc1; Nspe = C[C@H](NCC(=O)O)c1ccccc1; Nlys = NCCCCNCC(=O)O
I'd appreciate it if you could supply pIC50 values for the items below.
Give bare numbers, as −log10 of the molar value.

Field: pIC50. Fill in for each record below.
1. C[C@H](c1ccccc1)N(CC(=O)N(CCCCN)CC(=O)N(CC(=O)N(CC(=O)N(CCCCN)CC(=O)N(CC(=O)N(CC(=O)N(CCCCN)CC(=O)N(CC(=O)N(CC(N)=O)[C@@H](C)c1ccccc1)[C@@H](C)c1ccccc1)[C@@H](C)c1ccccc1)[C@@H](C)c1ccccc1)[C@H](C)c1ccccc1)[C@H](C)c1ccccc1)C(=O)CN(C(=O)CNCCCCN)[C@H](C)c1ccccc1 [1-Nrpe2,3,5,6] (H-[Nlys][Nrpe][Nrpe][Nlys][Nrpe][Nrpe][Nlys][Nspe][Nspe][Nlys][Nspe][Nspe]-NH2)
2. C[C@H](c1ccccc1)N(CC(N)=O)C(=O)CN(C(=O)CN(CCCCN)C(=O)CN(C(=O)CN(C(=O)CN(CCCCN)C(=O)CN(C(=O)CN(C(=O)CN(CCCCN)C(=O)CN(C(=O)CN(C(=O)CNCCCCN)[C@@H](C)c1ccccc1)[C@H](C)c1ccccc1)[C@@H](C)c1ccccc1)[C@H](C)c1ccccc1)[C@@H](C)c1ccccc1)[C@H](C)c1ccccc1)[C@@H](C)c1ccccc1 [1-Nrpe3,6,9,12, H-(Nlys-Nspe-Nrpe)4-NH2]

1. 5.32
2. 5.42

Which pIC50 reading was recorded for the compound C[C@H](c1ccccc1)N(CC(=O)N(CC(N)=O)[C@@H](C)c1ccccc1)C(=O)CN(CCCCN)C(=O)CN(C(=O)CN(C(=O)CN(CCCCN)C(=O)CN(C(=O)CN(C(=O)CN(CCCCN)C(=O)CN(C(=O)CN(C(=O)CNCCCCN)[C@H](C)c1ccccc1)[C@@H](C)c1ccccc1)[C@H](C)c1ccccc1)[C@@H](C)c1ccccc1)[C@H](C)c1ccccc1)[C@@H](C)c1ccccc1 [1-Nrpe2,5,8,11, H-(Nlys-Nrpe-Nspe)4-NH2] (H-[Nlys][Nrpe][Nspe][Nlys][Nrpe][Nspe][Nlys][Nrpe][Nspe][Nlys][Nrpe][Nspe]-NH2) ?
5.28

----------
# Test system: human erythrocytes
# Assay Text: Hemolysis assay
# Type: cell-based
Square brackets hold non-standard residues; d marks the D form. Peptide text beside a SMILES is read from it. Nspe = C[C@H](NCC(=O)O)c1ccccc1; NPentylGly = CCCCCNCC(=O)O; Nlys = NCCCCNCC(=O)O
Experimental Readout: HD10 (µM)
Numbers only, in µM.

- CCCCCNCC(=O)N(CCCCN)CC(=O)N(CC(=O)N(CC(=O)N(CCCCN)CC(=O)N(CC(=O)N(CC(=O)N(CCCCN)CC(=O)N(CC(=O)N(CC(N)=O)[C@@H](C)c1ccccc1)[C@@H](C)c1ccccc1)[C@@H](C)c1ccccc1)[C@@H](C)c1ccccc1)[C@@H](C)c1ccccc1)[C@@H](C)c1ccccc1 [C5-19 mer] (H-[NPentylGly][Nlys][Nspe][Nspe][Nlys][Nspe][Nspe][Nlys][Nspe][Nspe]-NH2): 65

Fill in the recorded HD10 for this molecule, with human erythrocytes as test system: C[C@@H](c1ccccc1)N(CC(N)=O)C(=O)CN(C(=O)CN(CCCCN)C(=O)CN(C(=O)CN(C(=O)CN(CCCCN)C(=O)CN(C(=O)CN(C(=O)CNCCCCN)[C@@H](C)c1ccccc1)[C@@H](C)c1ccccc1)[C@@H](C)c1ccccc1)[C@@H](C)c1ccccc1)[C@@H](C)c1ccccc1 [19 mer, H-(Nlys-Nspe-Nspe)3-NH2] (H-[Nlys][Nspe][Nspe][Nlys][Nspe][Nspe][Nlys][Nspe][Nspe]-NH2)
150
